Hello, the source for this data is patent US20250011881A1, in case you need it.

Known Non Amp - AMP (POC) 10 uM of a selection of compounds
- Test system: ovarian cancer cells with (OVCAR8, OVCAR4) or without (OVSAHO, CAOV3) MYC-HSF1 amplification
- method-notes: Epigenetic inhibitor drug screen, cell viability (Cell Titer Blue)
- Assay type: cell-based
- condition-info: 10 uM, 48 hrs; average relative cell viability (vs 1% DMSO) of non-amplified cells (OVSAHO, CAOV3) minus that of MYC-HSF1 amplified cells (OVCAR8, OVCAR4); positive = greater response in amplified cells
Counter-ions that a name gives are not always drawn.

compound | Non Amp - AMP (POC) 10 uM
C[C@@H]1O[C@@H](O[C@H]2[C@H](O[C@H]3[C@H](O[C@H]4CC[C@]5(C)[C@H]6CC=C7[C@@H]8CC(C)(C)CC[C@]8(C(=O)O)CC[C@@]7(C)[C@]6(C)CC[C@H]5C4(C)C)OC[C@H](O)[C@@H]3O)O[C@H](CO)[C@@H](O)[C@@H]2O)[C@H](O)[C@H](O)[C@H]1O | 2.609 POC
CN1CCN(c2cccc(Nc3nc4c(-c5ccc(S(C)(=O)=O)cc5)cccn4n3)c2)CC1 | 15.1 POC
O=C(c1cc(Cc2n[nH]c(=O)c3ccccc23)ccc1F)N1CCN(C(=O)C2CC2)CC1 | 3.527 POC
O=c1c(-n2ccnn2)c[nH]n1-c1cc(N2CCOCC2)ncn1 | −4.287 POC
O=C1c2c(O)ccc(O)c2C(=O)c2c(NCCNCCO)ccc(NCCNCCO)c21 [Mitoxantrone HCl] | 11.28 POC
O=C([C@@H](Cc1cccc(C(F)(F)F)c1)NS(=O)(=O)c1cc(F)c2c(c1)CCNC2)N1CCCC1 | −2.63 POC
O=c1oc2c(O)c(O)cc3c(=O)oc4c(O)c(O)cc1c4c23 | 13.8 POC
Cc1cc(C)c(CNC(=O)c2cc(-c3ccc(N4CCN(C)CC4)nc3)cc3c2c(C)cn3C(C)C)c(=O)[nH]1 | −0.09843 POC
O=C(CCCCCCC(=O)Nc1cccnc1)NO [Pyroxamide] | 60.34 POC
[H]/N=C(/N)N/C(=N/[H])NCCc1ccccc1 [Phenformin HCl] | 7.32 POC
O=C(CBr)c1ccc(O)cc1 | −3.586 POC
CCS(=O)(=O)N1CC(CC#N)(n2cc(-c3ncnc4[nH]ccc34)cn2)C1.O=P(O)(O)O [Baricitirib phosphate] | 7.373 POC
O=C(O)CC[C@H](O)C(=O)O [L-a-Hydroxyglutaric Acid] | −7.873 POC
O=c1[nH]c(=S)[nH]c(-c2ccccc2)c1Cc1c(O)ccc2ccccc12 | 18.95 POC
COc1cc2nc(N3CCCC3)nc(NCCCCCN3CCCC3)c2cc1OC | 21.92 POC
CCS(=O)(=O)N1CC(CC#N)(n2cc(-c3ncnc4[nH]ccc34)cn2)C1 | −2.641 POC
COC(=O)[C@]12CCC(C)(C)C[C@H]1[C@H]1C(=O)C=C3[C@@]4(C)C=C(C#N)C(=O)C(C)(C)[C@@H]4CC[C@@]3(C)[C@]1(C)CC2 | 6.087 POC
CCC(C)SSc1ncc[nH]1 (centres unmarked) | −7.518 POC
C=C1C[C@@]2(O)O[C@@]3(C[C@H]2C(C)C)[C@@H](C)CC[C@@H]13 | −1.726 POC
NC(=O)c1ccc(I)c([N+](=O)[O-])c1 | −7.53 POC
CCN(CC)CCNC(=O)c1ccc(N)cc1 [Procainamide HCl] | 4.095 POC
CCS(=O)(=O)N1CCC([C@@H](C)n2c(C)c(C(=O)NCc3c(OC)cc(C)[nH]c3=O)c3ccccc32)CC1 | 3.906 POC
CC1COc2c(N3CCN(C)CC3)c(F)cc3c(=O)c(C(=O)O)cn1c23 (centres unmarked) | 5.913 POC
O=c1[nH]cnc2ccccc12 | −1.37 POC
CCS(=O)(=O)N1CCN(c2ccc(Nc3ncc(C(N)=O)c(NC4CC4)n3)cc2)CC1 | −1.406 POC
Cc1ccc(NC(=O)CCCCCC(=O)Nc2ccccc2N)cc1 | 8.223 POC
O=C(Nc1ccc(-c2ccnc(Nc3ccc(N4CCOCC4)cc3)n2)cc1)C1CCCN1 (centres unmarked) | −14.18 POC
C[C@H](NC(=O)/C(C#N)=C/c1cccc(Br)n1)c1ccccc1 | 3.079 POC
CC(C)c1cc(CNc2nc(Nc3cc(C4CC4)[nH]n3)cc(N3CCN(C)CC3)n2)on1 | 17.3 POC
CS(=O)(=O)O.Cn1cc(C2=C(c3cn(CCCSC(=N)N)c4ccccc34)C(=O)NC2=O)c2ccccc21 [Ro 31-8220 Mesylate] | 3.048 POC
C[C@@H]1O[C@@H](CC(=O)O)CC2=C1C(=O)c1c(O)cccc1C2=O | 2.594 POC
Cc1cn([C@H]2C[C@H](O)[C@@H](CO)O2)c(=O)nc1N | −10.37 POC
